The measured values listed here are drawn from patent US7091247B2.

Molecular target: human GPR14 (Homo sapiens, UniProt Q9UKP6)
Construct: expressed in transfected cells; host or cells: CHO dhfr- cells stably transfected with pcDNA3.1-hGPR14 (CHO/hGPR14)
Sequence (Q9UKP6 whole entry): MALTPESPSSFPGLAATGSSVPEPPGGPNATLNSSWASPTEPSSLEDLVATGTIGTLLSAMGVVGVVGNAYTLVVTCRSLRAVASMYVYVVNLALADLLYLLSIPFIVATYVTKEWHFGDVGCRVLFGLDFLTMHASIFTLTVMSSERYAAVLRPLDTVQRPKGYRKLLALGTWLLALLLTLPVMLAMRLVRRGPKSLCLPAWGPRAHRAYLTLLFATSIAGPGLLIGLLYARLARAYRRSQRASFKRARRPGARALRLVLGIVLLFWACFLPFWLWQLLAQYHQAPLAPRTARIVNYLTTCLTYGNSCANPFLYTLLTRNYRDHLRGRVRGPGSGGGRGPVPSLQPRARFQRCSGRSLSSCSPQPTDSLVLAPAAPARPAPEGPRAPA
Assay: Inhibition of binding of [125I]-labeled human urotensin II to human GPR14-expressing CHO cell membrane fraction
Conditions: 25° C., 3 hours, read-out: Inhibitory concentration (concentration showing 50% inhibition of human GPR14 binding activity)
pIC50: −log10 of the molar value. Where a name gives a salt, the structure may show the parent alone.
MEASURED_PARAMETER: pIC50

MOLECULE: NS(=O)(=O)c1ccc(CCN(Cc2cccc(-c3cccc(C(=O)NCCN4CCCC4)c3)c2)C(=O)COCc2ccccc2)cc1 [Example 6, hydrochloride]
ASSAY_VALUE: 7.89

MOLECULE: NS(=O)(=O)c1ccc(CCN(Cc2cccc(-c3cccc(C(=O)NCCN4CCCC4)c3)c2)C(=O)CCCc2ccccc2)cc1 [Example 4, hydrochloride]
ASSAY_VALUE: 8.00
